Hey, just so you know, these numbers are from patent US20220041606A1.

Molecular target: human mAChR M1 (Homo sapiens, UniProt P11229)
Construct: host or cells: CHO-K1 cells (ATCC), stably transfected using Lipofectamine2000
Sequence (P11229 whole entry): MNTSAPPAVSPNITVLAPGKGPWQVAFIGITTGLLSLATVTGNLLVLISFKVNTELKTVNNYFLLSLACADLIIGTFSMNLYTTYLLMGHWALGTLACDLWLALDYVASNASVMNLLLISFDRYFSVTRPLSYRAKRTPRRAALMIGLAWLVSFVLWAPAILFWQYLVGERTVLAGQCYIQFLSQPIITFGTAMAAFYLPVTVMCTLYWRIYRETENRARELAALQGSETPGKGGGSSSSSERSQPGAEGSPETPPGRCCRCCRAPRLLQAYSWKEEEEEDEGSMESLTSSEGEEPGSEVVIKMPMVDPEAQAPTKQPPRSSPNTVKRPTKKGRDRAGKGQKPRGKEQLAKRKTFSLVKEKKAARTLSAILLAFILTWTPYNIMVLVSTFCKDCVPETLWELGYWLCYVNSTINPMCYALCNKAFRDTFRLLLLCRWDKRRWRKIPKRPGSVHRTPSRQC
Test: mAChR M1 cell-based functional assay (calcium mobilization), agonist activity upon compound addition
Conditions: CHO-K1 cells expressing hM1; relative to the maximum for acetylcholine
Reported endpoint: Emax (%)
I only need the number, in %, no unit after it.

Smiles entry | Reported value
Cn1ccc(-c2ccc(Cn3cc(C(=O)N[C@H]4CCCC[C@@H]4O)c4nccn4c3=O)c(F)c2)n1 | 60
Cn1cc(-c2ccc(Cn3cc(C(=O)N[C@H]4CCOC[C@@H]4O)c4nccn4c3=O)c(F)c2)cn1 | 62

Proceeding to the next compound to report its Emax.
-- ask Give Emax for Cn1cc2c(-c3cc(F)c(Cn4cc(C(=O)N[C@H]5CCOC[C@@H]5O)c5nccnc5c4=O)c(F)c3)cccc2n1
-- reply 46
